- targetUnderTest: T1, MORT-1 (FADD), human, full-length (human, UniProt Q13158 1-208)
- T1 construct: Gal4 hybrid in yeast; also expressed in mammalian cells; also called HF1
- T1 sequence (looked up): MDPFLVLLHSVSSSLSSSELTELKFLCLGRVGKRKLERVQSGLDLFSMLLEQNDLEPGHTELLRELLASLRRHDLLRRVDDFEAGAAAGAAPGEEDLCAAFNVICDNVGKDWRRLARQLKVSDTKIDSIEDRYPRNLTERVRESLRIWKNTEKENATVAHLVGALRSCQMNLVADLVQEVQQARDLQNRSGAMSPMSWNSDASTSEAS
- assayText: yeast two-hybrid beta-galactosidase test

{"columns": ["binder", "binding result"],
 "data": [
  ["mouse Fas-IC I225N (receptor, UniProt P25446 187-327, looked up, domain: intracellular domain; The text says 'Ile to Leu' but labels the mutant I225N; Position as printed; may count on the mature receptor; also called lprcg mutation) RKYRKRKCWKRRQDDPESRTSSRETIPMNASNLSLSKYIPRIAEDMTIQEAKKFARENNNKEGKIDEIMHDSIQDTAEQKVQLLLCWYQSHGKSDAYQDLIKGLKKAECRRTLDKFQDMVQKDLGKSTPDTGNENEGQCLE", "no binding"],
  ["mouse Fas-IC I225A (receptor, UniProt P25446 187-327, looked up, domain: intracellular domain; Position as printed; may count on the mature receptor) RKYRKRKCWKRRQDDPESRTSSRETIPMNASNLSLSKYIPRIAEDMTIQEAKKFARENNAKEGKIDEIMHDSIQDTAEQKVQLLLCWYQSHGKSDAYQDLIKGLKKAECRRTLDKFQDMVQKDLGKSTPDTGNENEGQCLE", "no binding"],
  ["mouse Fas-IC (receptor, UniProt P25446 187-327, looked up, domain: intracellular domain) RKYRKRKCWKRRQDDPESRTSSRETIPMNASNLSLSKYIPRIAEDMTIQEAKKFARENNIKEGKIDEIMHDSIQDTAEQKVQLLLCWYQSHGKSDAYQDLIKGLKKAECRRTLDKFQDMVQKDLGKSTPDTGNENEGQCLE", "binds"],
  ["MORT-1 fragment residues 130-245 (MORT-1 DD) (other, human, UniProt Q13158 82-197, looked up, Gal4 hybrid in yeast; expressed in HeLa cells for the cytotoxicity test; also called MORT 'tail') FEAGAAAGAAPGEEDLCAAFNVICDNVGKDWRRLARQLKVSDTKIDSIEDRYPRNLTERVRESLRIWKNTEKENATVAHLVGALRSCQMNLVADLVQEVQQARDLQNRSGAMSPMS", "no binding"]
]}
